For each entry below, report its viability value.
assay: BET inhibitor-based combinations targeting novel dependencies in MECOM-rearranged (r) AML: SET-2 cell line (AID 2202231); conditions: SET-2 AML cells viability, CellTiter-Glo luminescence, 48 h; hits give low values, concentration not given here;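 further: plate controls were DMSO treated cells for no effect and wells without cells for full effect; nearly all actives have a fitted effect of over 35% in size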
Records with an inconclusive call do not appear.
Numbers only, in %.

Completed entries (count: 6):
>>> value_measured("OC[C@H]1O[C@@H](S[C@@H]2O[C@H](CO)[C@H](O)[C@H](n3cc(-c4cccc(F)c4)nn3)[C@H]2O)[C@H](O)[C@@H](n2cc(-c3cccc(F)c3)nn2)[C@H]1O")
115
>>> value_measured("C[C@H]1C[C@H]2[C@@H]3CCC4=CC(=O)C=C[C@]4(C)[C@H]3C(=O)C[C@]2(C)[C@@]1(O)C(=O)CO")
116
>>> value_measured("Cc1c(C(=O)Nc2ccc(Oc3ccnc4[nH]cc(-c5ccccc5)c34)c(F)c2)c(=O)n(-c2ccc(F)cc2)n1C")
96.3
>>> value_measured("CC1(C)S[C@H]2[C@H](NC(=O)[C@@H](N)c3ccc(O)cc3)C(=O)N2[C@H]1C(=O)O")
99.7
>>> value_measured("C[C@H](Nc1nc(N[C@H](C)C(F)(F)F)nc(-c2cccc(Cl)n2)n1)C(F)(F)F")
120
>>> value_measured("CCn1c(=O)c2c(nc(/C=C/c3ccc(OC)c(OC)c3)n2C)n(CC)c1=O")
107

Below is a list of compounds. For each, state its recorded viability.
1. CC(C)(CO)n1cc(C(=O)c2cncc(NC(=O)Cc3ccc(Cl)cn3)c2)c2cnc(N)nc21
2. COc1ccnc2[nH]cc(C(=O)C(=O)N3CCN(C(=O)c4ccccc4)C[C@H]3C)c12
3. CN1CC(=O)N2[C@H](c3ccc4c(c3)OCO4)c3[nH]c4ccccc4c3C[C@@H]2C1=O
4. C[C@H]1O[C@H](O[C@H]2[C@H](O)[C@@H](O)[C@@H](O[C@H]3[C@H](O)[C@@H](O)C(O)O[C@@H]3CO)O[C@@H]2CO)[C@H](O)[C@@H](O)[C@@H]1N[C@H]1C=C(CO)[C@@H](O)[C@H](O)[C@H]1O (stereo partly drawn)

Response:
1: 125; 2: 113; 3: 116; 4: 101

---

assay: qHTS for Inhibitors of the Aldehyde Dehydrogenase Family (ALDH1A2, ALDH1A3, ALDH2, ALDH3A1) (AID 2061307); conditions: ALDH inhibition qHTS; series mostly up to 50.3 µM; further: nearly all actives have a fitted effect of over 50% in size
Records with an inconclusive call do not appear. Activity calls are given as the source filed them. Calls follow the shape of the dose curve; as a rule, active = well fitted inhibition curve with a large enough effect; inconclusive = small, poorly fitted or top-dose-only effect; inactive = no such curve, though single readings can be large or run the other way.
Lab note: assign the record to one of active, inactive

// known answers, use as guide
>>> class("Cc1ccc(-n2ncc3c(Nc4cccc(C(=O)O)c4)ncnc32)cc1")
"inactive"
>>> class("O=C(Nc1ncc(Cc2ccccc2F)s1)c1ccn(-c2ccccc2)n1")
"inactive"
>>> class("COc1cccc(NC(=O)c2cc3ccccc3[nH]c2=O)c1")
"inactive"
>>> class("O=C(c1ccc(Cl)cc1)c1no[n+]([O-])c1C(=O)c1ccc(Cl)cc1")
"active"
>>> class("COc1ccc(-n2c(C)c(C(C)=O)c3cc(OC(=O)c4ccco4)ccc32)cc1")
"inactive"

Prompt: Please share the test call associated with Cc1nc2cc(NS(=O)(=O)c3cc(C(=O)O)ccc3C)ccc2o1 .
Response: active

Prompt: Any idea what this test logged for COc1ccc(C2Nc3ccccc3C(=O)N2Cc2cccc3ccccc23)cc1COc1ccc(NC(C)=O)cc1 (stereo not given) ?
Response: active

Prompt: Give the logged outcome of this assay for the following compound: O=C(Nc1nc(-c2ccccc2)cs1)c1ccncc1NS(=O)(=O)c1ccccc1Cl
Response: active

Prompt: Hello, I am checking results. What call was entered for CCOc1ccc(C(=O)NCc2nc(-c3ccc(Cl)cc3)no2)cc1OCC ?
Response: inactive

Prompt: State the result this test recorded for Cc1c(P(=S)(c2ccccc2)c2ccccc2)[n+]2ccccc2n1C/C=C/c1ccc(Br)cc1 .
Response: inactive
